Tested On: T1, orthogonal hCD122 receptor (hoRb), hCD122 with H133D and Y134F (human, UniProt P14784 27-550)
T1 sequence: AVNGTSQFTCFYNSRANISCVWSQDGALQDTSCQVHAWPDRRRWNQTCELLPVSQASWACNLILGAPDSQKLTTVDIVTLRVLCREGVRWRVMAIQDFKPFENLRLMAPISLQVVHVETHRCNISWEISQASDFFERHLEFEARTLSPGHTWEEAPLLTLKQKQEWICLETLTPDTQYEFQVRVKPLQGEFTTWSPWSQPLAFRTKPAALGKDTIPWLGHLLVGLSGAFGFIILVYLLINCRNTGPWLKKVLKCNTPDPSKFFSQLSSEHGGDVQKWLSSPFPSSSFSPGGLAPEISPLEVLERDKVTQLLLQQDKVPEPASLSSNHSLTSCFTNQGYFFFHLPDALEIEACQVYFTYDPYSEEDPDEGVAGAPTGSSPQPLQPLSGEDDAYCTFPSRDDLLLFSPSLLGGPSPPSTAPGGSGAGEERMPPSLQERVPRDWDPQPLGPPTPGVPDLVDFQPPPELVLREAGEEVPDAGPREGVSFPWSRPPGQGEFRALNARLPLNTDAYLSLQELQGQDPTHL
Experiment: cell-based or functional assay
Metric Name: 3F8 Ortho Proliferation Signal 1:10 (cts/min)

(A) SQVLKT (ligand) APTSSSTKKTQLQLSQLLVLLKTILNGINNYKNPKLTRMLTFKFYMPKKATELKHLQCLEEELKPLEEVLNLAQSKNFHLRPRDLISNINVIVLELKGSETTFMCEYADETATIVEFLNRWITFCQSIISTLT
(B) T3N, SQVLKA (ligand) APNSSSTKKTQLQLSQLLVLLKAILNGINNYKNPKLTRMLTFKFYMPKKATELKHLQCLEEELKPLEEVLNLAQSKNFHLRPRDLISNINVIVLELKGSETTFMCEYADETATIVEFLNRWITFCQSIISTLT
INPUT: Please indicate which entry, A or B , has the lower recorded 3F8 Ortho Proliferation Signal 1:10 value. Answer by stating the label of the chosen item.
OUTPUT: B

(A) ΔP2, SQVLKA (ligand) ATSSSTKKTQLQLSQLLVLLKAILNGINNYKNPKLTRMLTFKFYMPKKATELKHLQCLEEELKPLEEVLNLAQSKNFHLRPRDLISNINVIVLELKGSETTFMCEYADETATIVEFLNRWITFCQSIISTLT
(B) V91K, SQVLKA (ligand) APTSSSTKKTQLQLSQLLVLLKAILNGINNYKNPKLTRMLTFKFYMPKKATELKHLQCLEEELKPLEEVLNLAQSKNFHLRPRDLISNINKIVLELKGSETTFMCEYADETATIVEFLNRWITFCQSIISTLT
INPUT: Please indicate which entry, A or B , has the lower recorded 3F8 Ortho Proliferation Signal 1:10 value. Answer by stating the label of the chosen item.
OUTPUT: B
(B: 992 cts/min, A: 31000 cts/min)

(I) T3D, SQVLKA (ligand) APDSSSTKKTQLQLSQLLVLLKAILNGINNYKNPKLTRMLTFKFYMPKKATELKHLQCLEEELKPLEEVLNLAQSKNFHLRPRDLISNINVIVLELKGSETTFMCEYADETATIVEFLNRWITFCQSIISTLT
(II) Q126T, SQVLKA (ligand) APTSSSTKKTQLQLSQLLVLLKAILNGINNYKNPKLTRMLTFKFYMPKKATELKHLQCLEEELKPLEEVLNLAQSKNFHLRPRDLISNINVIVLELKGSETTFMCEYADETATIVEFLNRWITFCTSIISTLT
(III) T3G, SQVLKA (ligand) APGSSSTKKTQLQLSQLLVLLKAILNGINNYKNPKLTRMLTFKFYMPKKATELKHLQCLEEELKPLEEVLNLAQSKNFHLRPRDLISNINVIVLELKGSETTFMCEYADETATIVEFLNRWITFCQSIISTLT
INPUT: Please list the entries, largest 3F8 Ortho Proliferation Signal 1:10 first. Write the labels, ordered according to the request.
OUTPUT: I, III, II
(I: 35000 cts/min, III: 24400 cts/min, II: 1880 cts/min)

(a) SQVLIA (ligand) APTSSSTKKTQLQLSQLLVLLIAILNGINNYKNPKLTRMLTFKFYMPKKATELKHLQCLEEELKPLEEVLNLAQSKNFHLRPRDLISNINVIVLELKGSETTFMCEYADETATIVEFLNRWITFCQSIISTLT
(b) ΔD20, SQV_KA (ligand) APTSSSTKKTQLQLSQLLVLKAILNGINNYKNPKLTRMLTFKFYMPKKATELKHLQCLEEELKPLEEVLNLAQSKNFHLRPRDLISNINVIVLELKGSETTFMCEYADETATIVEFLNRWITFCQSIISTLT
(c) R38W, SQVLKA (ligand) APTSSSTKKTQLQLSQLLVLLKAILNGINNYKNPKLTWMLTFKFYMPKKATELKHLQCLEEELKPLEEVLNLAQSKNFHLRPRDLISNINVIVLELKGSETTFMCEYADETATIVEFLNRWITFCQSIISTLT
INPUT: Please list the entries, largest 3F8 Ortho Proliferation Signal 1:10 first. Write the labels, ordered according to the request.
OUTPUT: c, a, b

(A) ΔH16, S_VLKA (ligand) APTSSSTKKTQLQLSLLVLLKAILNGINNYKNPKLTRMLTFKFYMPKKATELKHLQCLEEELKPLEEVLNLAQSKNFHLRPRDLISNINVIVLELKGSETTFMCEYADETATIVEFLNRWITFCQSIISTLT
(B) SQVLHA (ligand) APTSSSTKKTQLQLSQLLVLLHAILNGINNYKNPKLTRMLTFKFYMPKKATELKHLQCLEEELKPLEEVLNLAQSKNFHLRPRDLISNINVIVLELKGSETTFMCEYADETATIVEFLNRWITFCQSIISTLT
INPUT: API: POST /compare with A and B ; response names the item with higher 3F8 Ortho Proliferation Signal 1:10. Answer by stating the label of the chosen item.
OUTPUT: B
(B: 35100 cts/min, A: 4420 cts/min)
